# TEST_PROTOCOL: Cytotoxicity against human etoposide-resistant GUMBUS cells after 72 hrs by MTT assay
# Format: functional, cell-based
METRIC: pIC50
In simple prose, pIC50 is minus the logarithm base ten of a concentration in moles per litre.

Q: Give the measured pIC50 for COc1cc([C@@H]2c3cc4c(cc3[C@@H](O[C@@H]3O[C@@H]5CO[C@@H](C)O[C@H]5[C@H](O)[C@H]3O)[C@H]3COC(=O)[C@H]23)OCO4)cc(OC)c1O [ETOPOSIDE]
Ans: 6.24
